Answer each item with its documented half-life.
assay: Half life in rat at 3 mg/kg, iv and 10 mg/kg, po; format: ADME, organism-based; conditions: in vivo
Express the result in h but write the number alone.

Dear colleague, please send me the reported half-life for "CCOc1cc2ncc(C(N)=O)c(Nc3cccc(Cl)c3Cl)c2cc1N1CCN(C(C)=O)CC1" when you can. 0.65

Dear colleague, please send me the reported half-life for "CCOc1cc2ncc(C(N)=O)c(Nc3ccc(F)cc3F)c2cc1N1CCN(C)CC1" when you can. 2.1

Dear colleague, please send me the reported half-life for "CCOc1cc2ncc(C(N)=O)c(Nc3ccc(F)cc3F)c2cc1N1CCN(C2CC2)CC1" when you can. 0.9

Dear colleague, please send me the reported half-life for "CCOc1cc2ncc(C(N)=O)c(Nc3ccc(F)cc3F)c2cc1N1CCN(CC)CC1" when you can. 2.3

Dear colleague, please send me the reported half-life for "COc1cc2ncc(C(N)=O)c(Nc3ccc(F)cc3F)c2cc1OC" when you can. 0.6

Dear colleague, please send me the reported half-life for "CCOc1cc2ncc(C(N)=O)c(Nc3ccc(F)c(Cl)c3)c2cc1N1CCN(C)CC1" when you can. 2.2

Dear colleague, please send me the reported half-life for "COCCOc1cc2ncc(C(N)=O)c(Nc3ccc(C)cc3F)c2cc1N1CCN(C)CC1" when you can. 3.4

Dear colleague, please send me the reported half-life for "COc1cc2ncc(C(N)=O)c(Nc3cccc(Cl)c3Cl)c2cc1N1CCN(C)CC1" when you can. 2.5

Dear colleague, please send me the reported half-life for "CN1CCN(c2cc3c(Nc4cccc(Cl)c4Cl)c(C(N)=O)cnc3cc2F)CC1" when you can. 0.8

Dear colleague, please send me the reported half-life for "CCOc1cc2ncc(C(N)=O)c(Nc3ccc(C)cc3F)c2cc1N1CCN(C)CC1" when you can. 2.3

Dear colleague, please send me the reported half-life for "CCOc1cc2ncc(C(N)=O)c(Nc3cc(F)ccc3F)c2cc1N1CCN(C)CC1" when you can. 1.3

Dear colleague, please send me the reported half-life for "CCOc1cc2ncc(C(N)=O)c(Nc3cccc(Cl)c3Cl)c2cc1N1CCN(CC)CC1" when you can. 1.2

----------
experiment: Half life in rat at 3 mg/kg, iv and 10 mg/kg, po; format: ADME, organism-based; settings: in vivo
Answer each item with its documented half-life.
Express the result in h but write the number alone.

Dear colleague, please send me the reported half-life for "CC(C)Oc1cc2ncc(C(N)=O)c(Nc3ccc(F)cc3F)c2cc1N1CCN(C)CC1" when you can. 2.3

Dear colleague, please send me the reported half-life for "COCCOc1cc2ncc(C(N)=O)c(Nc3cc(C)ccc3F)c2cc1N1CCN(C)CC1" when you can. 4.2

Dear colleague, please send me the reported half-life for "COCCOc1cc2ncc(C(N)=O)c(Nc3cccc(Cl)c3Cl)c2cc1N1CCN(C)CC1" when you can. 0.83

Dear colleague, please send me the reported half-life for "CN1CCN(c2ccc3ncc(C(N)=O)c(Nc4cccc(Cl)c4Cl)c3c2)CC1" when you can. 0.7

Dear colleague, please send me the reported half-life for "CCOc1cc2ncc(C(N)=O)c(Nc3cccc(Cl)c3Cl)c2cc1N1CCN(C)CC1" when you can. 0.9

Dear colleague, please send me the reported half-life for "CCOc1cc2ncc(C(N)=O)c(Nc3cc(C)ccc3F)c2cc1N1CCN(C)CC1" when you can. 2.3

Dear colleague, please send me the reported half-life for "COCCOc1cc2ncc(C(N)=O)c(Nc3ccc(F)cc3F)c2cc1N1CCN(C)CC1" when you can. 3.8

Dear colleague, please send me the reported half-life for "COc1cc2ncc(C(N)=O)c(Nc3ccc(F)cc3F)c2cc1N1CCN(C)CC1" when you can. 1.8

Dear colleague, please send me the reported half-life for "CCOc1cc2ncc(C(N)=O)c(Nc3cccc(Cl)c3Cl)c2cc1N1CCCN(C)CC1" when you can. 8.6

Dear colleague, please send me the reported half-life for "CCOc1cc2ncc(C(N)=O)c(Nc3ccc(F)cc3F)c2cc1N1CCOCC1" when you can. 0.6
